System: CCRIS mutagenicity, Ames/micronucleus/aberration tests
Assay: CCRIS mutagenicity studies
Conditions: Test System: AMES SALMONELLA TYPHIMURIUM; Strain/Indicator: TA1535; Metabolic Activation: NONE; Method: PREINCUBATION
Activity calls are given as the source filed them. No rule for the calls is given here.
Field 'call' accepts active, inactive

Recorded results for 5 compounds are shown here.
Cc1ccccc1Cl ... inactive
CC(C)(C)OOC(C)(C)CCC(C)(C)OOC(C)(C)C ... inactive
CC(=O)Nc1ccc(N)cc1 ... inactive
CCCCCCCCCCCCC/C([O-])=N/[N+](C)(C)CC(C)O (centres undefined) ... inactive
C[n+]1c2cc(N)ccc2cc2ccc(N)cc21 ... inactive

Shift focus to the following entry.
Could you check what this test reported for Clc1cccc(Cl)c1NC1=NCCN1 ?
inactive

* * *

Tested on: CCRIS mutagenicity, Ames/micronucleus/aberration tests
Assay: CCRIS mutagenicity studies
Settings: Test System: AMES SALMONELLA TYPHIMURIUM; Strain/Indicator: TA100; Metabolic Activation: RAT, LIVER, S-9, AROCLOR 1254; Method: STANDARD PLATE
Excerpt: The CCRIS database contains chemical records with carcinogenicity, mutagenicity, tumor promotion, and tumor inhibition test results. It was developed by the National Cancer Institute (NCI). Data are derived from studies cited in primary journals, current awareness tools, NCI reports, and other sources. Test results have been reviewed by experts in carcinogenesis and mutagenesis. CCRIS provides historical information from the years 1985 - 2011. It is no longer updated. […]
The source made the active and inactive calls. No rule for the calls is given here.
Field 'call' accepts active, inactive

O=NN1CCCC1 ... inactive
O=C1c2ccccc2-c2ccc3ccc4ccccc4c3c21 ... inactive

Could you check what this test reported for Cc1ccc(N)c(C)c1 ?
active

Could you check what this test reported for O=C1N=NC(=O)C2C=CC=CC12 (stereo unspecified) ?
inactive

Could you check what this test reported for Cc1ccc2nc3c(c(C)c2c1)[C@@H](O)[C@H](O)c1ccccc1-3 ?
inactive

Could you check what this test reported for Cc1ccccc1Cl ?
inactive

Could you check what this test reported for c1ccc2c(c1)c1ccccc1c1cc3cnccc3cc21 ?
active

Could you check what this test reported for Cc1cc2c(C)c3ccccc3c(C)c2cc1C ?
active

Could you check what this test reported for Cc1cc(Cl)ccc1OCCCC(=O)O ?
inactive

* * *

Test system: CCRIS mutagenicity, Ames/micronucleus/aberration tests
Test: CCRIS mutagenicity studies
Settings: Test System: CHINESE HAMSTER V-79; Strain/Indicator: V-79/OUABAIN; Metabolic Activation: HAMSTER, HEPATOCYTES; Method: CELL-MEDIATED
The source made the active and inactive calls. No rule for the calls is given here.
Field 'call' accepts active, inactive

CCCN(C)N=O ... active
CCC(=O)CN(CC(=O)CC)N=O ... active
CN(N=O)C(C)(C)C ... inactive

Could you check what this test reported for CC(=O)OC(C)CN(CC(C)OC(C)=O)N=O (stereo not given) ?
active

Could you check what this test reported for CC(=O)CN(CC(C)O)N=O (stereo not given) ?
active

* * *

Test system: CCRIS mutagenicity, Ames/micronucleus/aberration tests
Assay: CCRIS mutagenicity studies
Settings: Test System: AMES SALMONELLA TYPHIMURIUM; Strain/Indicator: TA100; Metabolic Activation: RAT, LIVER, S-9, AROCLOR 1254; Method: PREINCUBATION
Calls of active or inactive are those of the source. How the calls were made is not given here.
Field 'call' accepts active, inactive

CCC(Cl)C(Cl)C(Cl)CC(Cl)C(Cl)C(C)Cl (centres undefined) ... inactive
CC1CNCC(C)O1 (centres undefined) ... inactive
COc1cc(-c2ccc(N)c(OC)c2)ccc1N ... active
CCCCCCc1ccc(O)cc1O ... inactive
O=[N+]([O-])c1cccc2c1-c1ccc3ccc4cccc5cc-2c1c3c45 ... active
CC(=O)OC1CC(C)OC(C)O1 (centres undefined) ... active
OC1C=Cc2c(ccc3c2-c2cccc4cccc-3c24)C1O (centres undefined) ... active
Nc1ccc(Oc2ccc([N+](=O)[O-])cc2)cc1 ... active
O=C(O)/C=C/C=C/C(=O)O ... inactive
OO ... inactive

Could you check what this test reported for Cl/C=C(\Cl)SCc1ccccc1 ?
active

Could you check what this test reported for O=NN1CCCC1 ?
active

Could you check what this test reported for NC[N+](=O)[O-] ?
inactive

Could you check what this test reported for Nc1c(O)ccc2ccccc12 ?
inactive

Could you check what this test reported for C1CS1 ?
active

Could you check what this test reported for c1cnccn1 ?
inactive

Could you check what this test reported for C=CCc1ccc(O)c(OC)c1 ?
inactive

Could you check what this test reported for O=C(O)COc1ccccc1 ?
inactive

Could you check what this test reported for COc1cc(C)cc2c(O)c(-c3c(C)cc4c(O)ccc(O)c4c3OC)cc(O)c12 ?
inactive

Could you check what this test reported for Cc1cnc(C)c(C)n1 ?
inactive

Could you check what this test reported for Cc1cccn2c1nc1ccc(N)nc12 ?
active

Could you check what this test reported for O=C(O)/C=C/c1ccccc1 ?
inactive

Could you check what this test reported for O=C(Cl)c1ccccc1F ?
active

Could you check what this test reported for Oc1ccc2cc3c4ccccc4c4ccccc4c3cc2c1O ?
active

Could you check what this test reported for Nc1ccc(/C=C/C(=O)O)cc1 ?
inactive

Could you check what this test reported for O=Cc1ccco1 ?
inactive

Could you check what this test reported for CNS(=O)(=O)c1ccc(N)cc1 ?
inactive

Could you check what this test reported for [Li+] ?
inactive

Could you check what this test reported for Oc1ccc2cc3c4ccccc4c4ccccc4c3cc2c1 ?
active

Could you check what this test reported for Clc1cccc(Cl)c1 ?
inactive

* * *

Test system: CCRIS mutagenicity, Ames/micronucleus/aberration tests
Test: CCRIS mutagenicity studies
Details: Test System: AMES SALMONELLA TYPHIMURIUM; Strain/Indicator: TA98; Metabolic Activation: HAMSTER, LIVER, S-9, AROCLOR 1254 (10%); Method: PREINCUBATION
Description: The CCRIS database contains chemical records with carcinogenicity, mutagenicity, tumor promotion, and tumor inhibition test results. It was developed by the National Cancer Institute (NCI). Data are derived from studies cited in primary journals, current awareness tools, NCI reports, and other sources. Test results have been reviewed by experts in carcinogenesis and mutagenesis. CCRIS provides historical information from the years 1985 - 2011. It is no longer updated. […]
Calls of active or inactive are those of the source. How the calls were made is not given here.
Field 'call' accepts active, inactive

O=C(O)CCC(=O)OC[C@@H](NC(=O)C(Cl)Cl)[C@H](O)c1ccc([N+](=O)[O-])cc1 ... inactive

Could you check what this test reported for CCCCCCCCCCCCC/C([O-])=N/[N+](C)(C)CC(C)O (centres undefined) ?
inactive

Could you check what this test reported for CCOP(=S)(OCC)OP(=S)(OCC)OCC ?
inactive

Could you check what this test reported for Clc1c(Cl)c(Br)c2c(c1Cl)-c1nc-2nc2[n-]c(nc3nc(nc4[n-]c(n1)c1c(Cl)c(Br)c(Cl)c(Br)c41)-c1c(Cl)c(Cl)c(Br)c(Cl)c1-3)c1c(Br)c(Cl)c(Br)c(Cl)c21.[Cu+2] ?
active

* * *

Test system: CCRIS mutagenicity, Ames/micronucleus/aberration tests
Assay: CCRIS mutagenicity studies
Details: Test System: AMES SALMONELLA TYPHIMURIUM; Strain/Indicator: TA1537; Metabolic Activation: HAMSTER, LIVER, S-9, AROCLOR 1254 (10%); Method: PREINCUBATION
Calls of active or inactive are those of the source. No rule for the calls is given here.
Field 'call' accepts yes (1) (active), no (0) (inactive)

Recorded results for 5 molecules are shown here.
Cc1cc(-c2ccc(N=Nc3cc(S(=O)(=O)O)c4ccccc4c3N)c(C)c2)ccc1N=Nc1cc(S(=O)(=O)O)c2ccccc2c1N ... no (0)
Cc1c(Br)c(Br)c(Br)c(Br)c1Br ... no (0)
Oc1cccc(O)c1 ... no (0)
CCc1c(Br)c(Br)c(Br)c(Br)c1Br ... no (0)
O=Cc1ccco1 ... no (0)

Could you check what this test reported for O=C1NC(=O)c2cc([N+](=O)[O-])ccc21 ?
yes (1)

Could you check what this test reported for OCC(CBr)(CBr)CBr ?
no (0)

Could you check what this test reported for CC(C)CC(=O)CC(C)C ?
no (0)

Could you check what this test reported for CCCCOC(=O)c1ccccc1C(=O)OCCCC ?
no (0)

Could you check what this test reported for CCCCC(CC)COP(OCC(CC)CCCC)OCC(CC)CCCC (centres undefined) ?
no (0)

Could you check what this test reported for O=c1ccc(=O)[nH][nH]1 ?
no (0)

Could you check what this test reported for O=S1(=O)CC=CC1 ?
no (0)

Could you check what this test reported for O=C(O)c1ccc([N+](=O)[O-])cc1 ?
no (0)

Could you check what this test reported for NCCCCCCN ?
no (0)

* * *

Tested on: CCRIS mutagenicity, Ames/micronucleus/aberration tests
Experiment: CCRIS mutagenicity studies
Details: Test System: AMES SALMONELLA TYPHIMURIUM; Strain/Indicator: TA98; Metabolic Activation: RAT, LIVER, S-9, AROCLOR 1254; Method: PREINCUBATION
Active and inactive are the calls of the source. How the calls were made is not given here.
Field 'call' accepts T = active, F = inactive

Recorded results for 10 compounds are shown here.
Cc1cnc(C)c(C)n1 ... F
O=[N+]([O-])c1cccc2c1-c1ccc3ccc4cccc5cc-2c1c3c45 ... T
C=CCc1ccc(OC)c(OC)c1 ... F
C=CCc1ccc(O)c(OC)c1 ... F
Clc1cccc(Cl)c1 ... F
CNc1ccc2ncc(C)nc2c1N ... F
OC1C=Cc2c(ccc3c2-c2cccc4cccc-3c24)C1O (stereo not given) ... T
CN(C)CCN(Cc1cccs1)c1ccccn1 ... F
O[C@H]1c2cccc3ccc4cccc(c4c23)[C@@H]1O ... F
Nc1ccccc1N ... T

Could you check what this test reported for O=Cc1ccco1 ?
F

Could you check what this test reported for CC(C)c1ccc2oc3nc(N)c(C(=O)O)cc3c(=O)c2c1 ?
F
